- experimentDescription: reducers of endogenous Her2 protein level, primary screen, SKBR3 breast tumor cells, AlphaScreen, ATP viability (AID 461);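 also: percent of carrier control wells set as 100% viability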
- statedConditions: 18-24 h, measured here: SKBR3 viability, ATP luminescence, at 10 µM
measuredProperty: viability (%)
Quick reminder: number only, in %, skip the unit.

Known results for compounds:
compound	viability / %
O=C(O)C1CC(=O)N(c2ccc(Br)cc2)C1 (configuration not stated)	81.5
CCOCCCNCC(=O)N1CCN(S(=O)(=O)c2ccc(C)cc2)CC1	90
CCCCCCOC(=O)C(C#N)c1nc2ccccc2nc1N1CCCCC1 (configuration not stated)	94
Cc1cc(NC(=O)Cn2cnc3c(cnn3C(C)(C)C)c2=O)no1	91.5
c1ccc2c(c1)sc1nnnn12	94.5

Please turn your attention to the following entry.
Incoming: Report measured viability; entry is `Cc1cc(NS(=O)(=O)c2ccccc2)n(-c2ccccc2)n1`
Outgoing: 106
